Measured melting point by item

| compound | melting point |
| --- | --- |
| COC(=O)c1nc(-c2ccccc2)n2c1CN=C(c1ccccc1F)c1cc(Cl)ccc1-2 | 208 to 209 °C |
| COc1ccc(N2CC(CN3CCC(O)(c4ccccc4)CC3)OC2=O)cc1 (centres undefined) | 141 to 143 °C |
| C=CCNCC(COc1cccc2c1CC(=O)N2)OC(=O)C12CC3CC(CC(C3)C1)C2 (centres undefined) | 170 to 172 °C |
| Cc1cc(Cl)ccc1NC(=O)n1nc(Oc2cccc(C(F)(F)F)c2)cc1C | 95 to 96 °C |
| COCC(C)OC(=O)c1ccc([N+](=O)[O-])cc1[N+](=O)[O-] (centres undefined) | 42 °C |
| COC[C@@H]1CN(c2nsc3cc(O)ccc23)C(=O)O1 | 142 to 143 °C |
| C=CC(=O)Nc1ccc2ncnc(Nc3ccc(Oc4ccccc4)cc3)c2c1 | 185 to 191 °C |
| C=CCOc1ccc(C(=C)C)cc1 | 22 to 23 °C |
| CN1C(=O)C2(COc3cc4c(cc32)OCCO4)c2c(O)cccc21 (centres undefined) | > 250 °C |
| NNC(=O)N(NC(=O)CSC(=O)c1ccccc1)C(=O)CSC(=O)c1ccccc1 | 184 to 190 °C |
| O=C(c1cccs1)c1cnn2c(-c3cccc(-c4nnn(Cc5ccccn5)n4)c3)ccnc12 | 184 °C |
| CCN(CCc1ccccc1OCc1ccccc1)c1ccc(C(=O)O)cc1 | 175 °C |
| CN1CCN(c2cc(Cl)cc3c2c(=O)n(Cc2cccc(O)c2)c(=O)n3Cc2ccccc2)CC1 | 234 to 236 °C |
| Cc1ccn(-c2ccc(C(=O)N3Cc4cccnc4Nc4ccccc43)c(C(F)(F)F)c2)n1 | 183 to 185 °C |
| Cc1ccc2c(c1)CCn1ccnc1C2=C1CCN(CCc2ccc(O)cc2)CC1 | 176 °C |
| O=C(O)c1c[nH]c(=S)n1C1Cc2cc(F)cc(F)c2C1 (centres undefined) | 230 to 232 °C |
| O=c1cc(OCC2CCCCC2)cc[nH]1 | 256 to 260 °C |
| CC(C)c1ccc(N(Cc2ccc(N(C)C)nc2)C(=O)C2CCCc3c(O)cccc32)cc1 (centres undefined) | 187 °C |
| CC(C)(C)c1cc(C=C2OC(NC(=N)N)=NC2=O)cc(C(C)(C)C)c1O | 258 °C |

* * *

Measured melting point accompanies every entry in the list below.
readout type: melting point

| compound | readout type | result value |
| --- | --- | --- |
| C=CCCc1ccc(C(N)=O)c(O)n1 | melting point | 195 to 198 °C |
| CC(C)c1ccc2c(c1)c(SC1CCCCC1)c(CC(C)(C)C(=O)O)n2Cc1ccc(Cl)cc1 | melting point | 166 to 168 °C |
| CCCCC(=O)NC(C(=O)OCC)=C(N)SCCOC(C)=O | melting point | 84 °C |
| CCCc1cc(-c2ccc(F)c3ccccc23)nc(N)n1 | melting point | 137 °C |
| CCOC(=O)c1sc(Cl)nc1C(F)(F)F | melting point | 58 to 59 °C |
| COc1cc(-c2ccc3cc4c(cc3c2)C(C)(C)CCC4(C)C)ccc1C(=O)O | melting point | 177 to 178 °C |
| COc1ccc(C(=O)O)cc1OC1CC=CC1 | melting point | 171 to 173 °C |
| CCC(=O)OC(c1nc2c(C(F)(F)F)cccc2c(O)c1C(=O)Nc1nccs1)C(C)C (stereo not given) | melting point | 222 °C |
| O=C1SCc2c1cccc2[N+](=O)[O-] | melting point | 128 to 133 °C |
| CCOC(=O)CN(CC1Nc2cc(Cl)c(S(N)(=O)=O)cc2S(=O)(=O)N1)C(=O)C(C)CSC(C)=O (stereo not given) | melting point | 127 to 130 °C |
